assay info: Inhibition of esterase in male Ostrinia nubilalis (European corn borer) antenna
readout kind: pIC50
// pIC50: -log10(molar conc.)

> print(dat)
                         compound  recorded.value
1  CC/C=C\CCCCCCCCCCC(=O)C(F)(F)F            6.55

IN: Answer with reported pIC50 of CC/C=C\CCCCCCCCCC(=O)C(F)(F)F [(Z)-10-tridecenyl trifluoromethyl ketone]
OUT: 5.12
